- Tested on: esterase E015
- ASSAY_NOTES: Initial screening of ThermoGen esterases toward esters 1-31 (pH indicator), specific activity
- Type: biochemical
- COND: 1 mM substrate, pH 7.2, 7 vol % acetonitrile, 25° C.
- Description: Initial screening measures the initial rate of hydrolysis of different esters. The rate of reaction was measured by monitoring the release of protons using a pH indicator, 4-nitrophenol. In this assay, the yellow color of the phenoxide disappears as the reaction proceeds. The amount of ester hydrolyzed can be measured quantitatively, as is known in the art. […]
ENDPOINT_LABEL: Specific activity, esterase E015

COMPOUND | ENDPOINT_LABEL | RESULT
COC(=O)CBr [Substrate 19] | Specific activity, esterase E015 | 2.6 mmol ester hydrolyzed/min/mg protein
CC(C)(C)CC(=O)Oc1ccc2nc3ccc(=O)cc-3oc2c1 [Substrate 10, reference compound] | Specific activity, esterase E015 | 5.9 mmol ester hydrolyzed/min/mg protein
C=COC(=O)CCCCCCC [Substrate 5] | Specific activity, esterase E015 | 320 mmol ester hydrolyzed/min/mg protein
CCCCOC(C)=O [Substrate 25] | Specific activity, esterase E015 | 1.0 mmol ester hydrolyzed/min/mg protein
CCCC(=O)OCC [Substrate 13] | Specific activity, esterase E015 | 2.0 mmol ester hydrolyzed/min/mg protein
C=COC(=O)C(C)(C)C [Substrate 11] | Specific activity, esterase E015 | 4.0 mmol ester hydrolyzed/min/mg protein
C=C(C)OC(C)=O [Substrate 27] | Specific activity, esterase E015 | 100 mmol ester hydrolyzed/min/mg protein
